Tested on: SK-MEL-2 melanoma
Assay: NCI-60 one-dose screen, 48 h
Settings: 10 µM unless noted
The panel holds about 83,000 compounds, 20% with a hit somewhere; the sample as a whole holds those more often. Active and inactive are the calls of the source. The calls were made as follows: active = growth percent below 10; inactive = the rest.
Please reply with one of these outcomes: active, inactive

CC(C)(C)OC(=O)NCc1cccc(N=C=S)c1: inactive
CCOc1ccccc1C(=O)N1CCN(c2cc(Cl)cc(Cl)c2)CC1: inactive
O=C1c2ccccc2OC=C(c2ccccc2)N1CCCCN1CCCCC1: inactive
Cc1cn([C@]2(CF)O[C@H](CO)C2C)c(=O)[nH]c1=O (some centres undefined): inactive
CN(C)c1ccc(/C=c2\s/c(=C\C(=O)C(C)(C)C)[nH]c2=O)cc1: inactive
CC(C)(C)C(=O)/C=c1/[nH]c(=O)/c(=C/c2ccccc2O)s1: inactive

Exam item: What classification did "CCCCNc1cc(C(=O)O)cc(S(N)(=O)=O)c1Oc1ccccc1" end up with in this test?
Marked response: inactive

Exam item: Please answer likewise for "CCOC(=O)CSc1nnc(-c2cc3c([nH]c4ccccc43)c(-c3cccc(O)c3)n2)n1-c1ccc(C)cc1"
Marked response: inactive

---

Form field: growth (one value per entry).
System: SF-268 CNS
Assay: NCI-60 one-dose screen, 48 h (100 = growth as untreated, 0 = no growth, -100 = all killed)
Conditions: 10 µM unless noted
Method: Cells are grown in 96 well plates and exposed to the test compound for 48 hours. Compounds are tested at a single concentration, which is 10^-5 M for most compounds. The reported endpoint is percent growth (GI% or GIPRCNT), where numbers from 0 - 100% represent growth inhibition, and numbers from -100% - 0 represent cell death. For example, a value of 40 represents 60% growth inhibition. A value of 0 means no net growth occurred over the course of the experiment. […]
This is part of a sample that, as a whole, favours compounds with a hit. Of some 83,000 tested, about 20% had one in any assay. Calls of active or inactive are those of the source. How the source made its calls: active means growth percent below 10; inactive means the rest.

Take a look at these entries with their results.
CCN(CC)CCNc1ccc([N+](=O)[O-])c2sc3cc(Cl)ccc3c(=O)c12: 52.4% (inactive)
O=C(NC(=S)Nc1ccc(Cl)cc1)c1ccccc1: 114% (inactive)

Exam item: Form field: reported growth of "NC(=NCCCOc1ccc(F)cc1)Nc1ccc(Cl)c(Cl)c1"
Marked response: 54.9% (inactive)

Exam item: Please answer likewise for Cc1ccc2c(C3C(C#N)=C(N)Oc4cc5ccccc5cc43)cc(=O)oc2c1 (stereo not given)
Marked response: 54.6% (inactive)

Exam item: Please answer likewise for "O=C(NCCNc1nccc(-c2c(-c3cccc(O)c3)nc3sccn23)n1)c1cc(N2CCOCC2)cc(C(F)(F)F)c1"
Marked response: 102% (inactive)

---

Test system: SNB-19 CNS
Experiment: NCI-60 one-dose screen, 48 h (100 = growth as untreated, 0 = no growth, -100 = all killed)
Settings: 10 µM unless noted
About 83,000 compounds went through this panel and 20% of them were active in at least one assay; those are over-represented in the sample as a whole. Calls of active or inactive are those of the source. Rule for the calls: active = growth percent below 10; inactive = the rest.
Form field: growth (one value per entry).

O=C(Nc1ccc(-n2cc(-c3ccncc3)c(-c3ccc(O)c(Cl)c3)n2)cc1)c1cc(C(F)(F)F)cc(C(F)(F)F)c1: 66.2% (inactive)
Cc1ncc(CO)c(C(=O)O)c1O: 107% (inactive)
Cc1cc(Nc2ccc(Cl)c(Cl)c2)nc(N)n1: 107% (inactive)
CCc1cccc(-c2ccccc2)c1: 107% (inactive)
Cc1c(Cl)ccc2c(C(=O)Cl)cc(-c3ccccc3)nc12: 98.6% (inactive)
O=C(Nc1ccc(-n2cc(-c3ccncc3)c(-c3ccc(O)c(Cl)c3)n2)cc1)Nc1ccc(Cl)c(C(F)(F)F)c1: 27.7% (inactive)
COc1cc(C(=O)NNC(=O)c2ccccc2O)cc(OC)c1OC: 93.3% (inactive)
CC(C)C1(C(C)C)NC(=O)NC1=O: 101% (inactive)

Exam item: Form field: reported growth of COc1cccc(/C=N/C(=S)NC2(C)C3CCC(C3)C2(C)C)c1O (stereo unspecified)
Marked response: 82.9% (inactive)

Exam item: Please answer likewise for "CC[C@@]1(O)C(=O)OCc2c1cc1n(c2=O)Cc2c-1nc1ccccc1c2/C=N/OC(C)(C)C"
Marked response: 5.74% (active)

Exam item: Please answer likewise for "O=C(Nc1ccc(F)cc1)Nc1ccc(Br)c(C(F)(F)F)c1"
Marked response: 19.8% (inactive)
